Tested on: 409B2 hiPSC (iCRISPR Cas9, FRMD7 editing)
Experiment: cell survival relative to solvent control (fold (ratio to mock)); higher = more surviving cells
Details: 2000 nM
Counter-ions that a name gives are not always drawn.
We begin with a simple list: items and their reported cell survival.

compound	tgt	cell survival
O[C@@H]1[C@H](O)[C@H](O)CO[C@H]1O [D-Ribose] (in DMSO)	409B2 hiPSC (iCRISPR Cas9, FRMD7 editing)	1.1
O=[N+]([O-])O[C@@H]1CO[C@H]2[C@@H]1OC[C@@H]2O [Isosorbide 5-mononitrate] (in DMSO)	409B2 hiPSC (iCRISPR Cas9, FRMD7 editing)	0.898
CC(CCc1ccccc1)NCC(O)c1ccc(O)c(C(N)=O)c1 (centres undefined) [Labetalol HCl] (in DMSO)	409B2 hiPSC (iCRISPR Cas9, FRMD7 editing)	0.953
O=C(O[C@H]1CN2CCC1CC2)N1CCc2ccccc2[C@@H]1c1ccccc1 [Solifenacin succinate] (in DMSO)	409B2 hiPSC (iCRISPR Cas9, FRMD7 editing)	1.06
CC(C)/N=c1\cc2n(-c3ccc(Cl)cc3)c3ccccc3nc-2cc1Nc1ccc(Cl)cc1 [Clofazimine] (in DMSO)	409B2 hiPSC (iCRISPR Cas9, FRMD7 editing)	0.597
Cc1ccc(NC(=O)c2ccc(CN3CC[C@H](N(C)C)C3)c(C(F)(F)F)c2)cc1Nc1nccc(-c2cncnc2)n1 [Bafetinib (INNO-406)] (in DMSO)	409B2 hiPSC (iCRISPR Cas9, FRMD7 editing)	1.07
Nc1c(CC(=O)O)cccc1C(=O)c1ccc(Br)cc1 [Bromfenac Sodium] (in DMSO)	409B2 hiPSC (iCRISPR Cas9, FRMD7 editing)	1.04
CCCCc1oc2ccc(NS(C)(=O)=O)cc2c1C(=O)c1ccc(OCCCN(CCCC)CCCC)cc1 [Dronedarone HCl] (in DMSO)	409B2 hiPSC (iCRISPR Cas9, FRMD7 editing)	0.521
CNCC[C@H](Oc1cccc2ccccc12)c1cccs1 [Duloxetine HCl] (in DMSO)	409B2 hiPSC (iCRISPR Cas9, FRMD7 editing)	0.92
CN(C)C(=O)Oc1cccc([N+](C)(C)C)c1 [Hodostin] (in DMSO)	409B2 hiPSC (iCRISPR Cas9, FRMD7 editing)	0.969
N=C(NCCCCCCNC(=N)NC(=N)Nc1ccc(Cl)cc1)NC(=N)Nc1ccc(Cl)cc1 [Chlorhexidine HCl] (in DMSO)	409B2 hiPSC (iCRISPR Cas9, FRMD7 editing)	1.03
CO[C@H]1O[C@@H]2O[C@@]3(C)CC[C@H]4[C@H](C)CC[C@@H]([C@H]1C)[C@@]24OO3 [Artemether (SM-224)] (in DMSO)	409B2 hiPSC (iCRISPR Cas9, FRMD7 editing)	1.09
C[C@]12CC[C@@H]3c4ccc(O)cc4CC[C@H]3[C@@H]1C[C@@H](O)[C@@H]2O [Estriol] (in DMSO)	409B2 hiPSC (iCRISPR Cas9, FRMD7 editing)	0.929
CC(=O)O[C@@]12CO[C@@H]1C[C@@H](O)[C@@]1(C)C(=O)[C@H](O)C3=C(C)[C@@H](O)C[C@@](O)([C@@H](OC(=O)c4ccccc4)[C@H]21)C3(C)C [10-DAB (10-Deacetylbaccatin)] (in DMSO)	409B2 hiPSC (iCRISPR Cas9, FRMD7 editing)	0.00356
